pIC50: −log10 of the molar value.
Study the reported pIC50 values for Progesterone receptor (Homo sapiens, UniProt P06401) given below; they originate from different publications.

Solved entries (count: 2):
COc1ccccc1-c1ccc2c(c1)C(CSCCc1ccccc1)=CC(C)(C)N2 = < 5.70
COc1ccccc1-c1ccc2c(c1)C(C(C)OCCc1ccccc1Cl)=CC(C)(C)N2 (centres undefined) = < 5.70

Provide pIC50 for all items below, preserving their order.
1. COc1ccc(F)cc1C(C)(C)CC(O)(Cc1cc2ccncc2o1)C(F)(F)F (centres undefined)
2. CC(C)N(c1ccccc1)S(=O)(=O)c1ccc(-c2ccc3c(cnn3-c3ccc(F)cc3)c2)c(C(F)(F)F)c1
3. Cc1cc(C(=O)C2=C(c3ccc(O)cc3)COc3cc(O)ccc32)ccc1OCCN1Cc2cccnc2C1
4. C=CCC[C@H](O)[C@H]1CCCC2=Cc3c(cnn3-c3ccc(F)cc3)C[C@@]21C
5. CC(C)S(=O)(=O)Nc1ccc(-c2ccc3c(cnn3-c3ccc(F)cc3)c2)c(C(F)(F)F)c1
6. COc1ccc(F)cc1C(C)(C)CC(O)(Cn1ccnc1)C(F)(F)F (centres undefined)

1. < 5.70
2. < 5.60
3. < 7.00
4. < 6.00
5. < 5.00
6. < 5.70

Need pIC50, item CCC(Cc1cc(C)ccc1C)NS(=O)(=O)c1c(C)cc(C)cc1C (centres undefined)
< 5.00

----------
- subject.of.test: Progesterone receptor (Homo sapiens, UniProt P06401)
- Sequence (P06401 whole entry): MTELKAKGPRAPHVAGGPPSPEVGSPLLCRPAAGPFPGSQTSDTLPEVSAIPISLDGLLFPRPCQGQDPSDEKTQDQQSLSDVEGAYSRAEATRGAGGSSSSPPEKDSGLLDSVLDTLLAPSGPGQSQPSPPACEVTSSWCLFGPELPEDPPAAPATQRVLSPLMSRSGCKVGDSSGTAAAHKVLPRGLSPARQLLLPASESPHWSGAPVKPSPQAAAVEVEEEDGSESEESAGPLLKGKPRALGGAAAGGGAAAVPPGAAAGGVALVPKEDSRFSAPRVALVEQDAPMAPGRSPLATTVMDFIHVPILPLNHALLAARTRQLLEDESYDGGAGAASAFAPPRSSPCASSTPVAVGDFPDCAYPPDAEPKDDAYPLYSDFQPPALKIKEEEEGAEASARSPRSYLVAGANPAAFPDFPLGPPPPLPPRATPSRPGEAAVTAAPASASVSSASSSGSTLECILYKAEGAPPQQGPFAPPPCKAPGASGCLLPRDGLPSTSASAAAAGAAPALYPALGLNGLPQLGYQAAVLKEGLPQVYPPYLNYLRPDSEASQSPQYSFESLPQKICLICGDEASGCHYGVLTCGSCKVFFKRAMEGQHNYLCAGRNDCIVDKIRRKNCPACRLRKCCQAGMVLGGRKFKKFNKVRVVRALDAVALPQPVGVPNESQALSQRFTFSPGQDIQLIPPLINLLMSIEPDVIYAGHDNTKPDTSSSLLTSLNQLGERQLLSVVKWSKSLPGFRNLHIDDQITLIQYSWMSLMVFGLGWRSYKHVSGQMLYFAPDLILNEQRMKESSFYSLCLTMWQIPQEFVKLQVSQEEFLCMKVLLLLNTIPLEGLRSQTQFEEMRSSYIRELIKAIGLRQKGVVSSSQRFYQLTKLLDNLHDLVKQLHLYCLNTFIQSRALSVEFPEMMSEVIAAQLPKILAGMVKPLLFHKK
Literature-derived IC50 for Progesterone receptor (Homo sapiens, UniProt P06401) follows.

O=C1COc2ccc(C3=Nn4cnnc4SC3c3ccccc3F)cc2N1 (stereo not drawn) = > 10 µM

Give IC50 for all compounds that follow.
1. C=CC[S+]([O-])CC1=CC(C)(C)Nc2ccc(-c3ccccc3OC)cc21 (stereo not drawn)
2. COc1ccccc1-c1ccc2c(c1)C(C(C)OCCC1CCCCC1)=CC(C)(C)N2 (stereo not drawn)
3. CC(C)(C)c1ccc(S(=O)(=O)Nc2ccc(-c3ccc4c(cnn4-c4ccc(F)cc4)c3)c(C(F)(F)F)c2)cc1
4. COc1ccc(F)cc1C(C)(C)CC(C)(O)Cc1cc2ccncc2[nH]1 (stereo not drawn)
5. CC(CN1CCCC2CCCNC21)OCC(=O)N1Nc2cc(O)ccc2C2COc3cc(O)ccc3C21 (stereo not drawn)
6. CN(C)CC(=O)N1CCC2(CC1)C(=O)Nc1cc(/C=C3\c4ccccc4COc4cc(F)ccc43)ccc12
7. O=C(c1ccc(OCCN2C(=O)CCC2=O)cc1)c1c(-c2ccc(O)cc2)oc(=O)c2cc(O)ccc12

["> 2 µM", "> 2 µM", "> 2.51 µM", "> 2 µM", "> 0.1 µM", "> 5 µM", "> 0.1 µM"]
